Each recorded value in this set is attributed to ChEMBL document CHEMBL1201862.

# Test system: HOP-62
# test summary: NCI tumour cell line growth inhibition, 48 h
The source made the active and inactive calls. No stated cut-off is given here; in the data, active = GI50 up to about 1.1 µM and inactive = higher.
Classes to choose from: active, inactive

Reference set, count: 2
| compound | discrete label |
| --- | --- |
| CC(C)C1OC(=O)/C=C/C=C/C=C/C=C/C=C/CC(O)CC(O)CC(O)CC(O)CC(O)CC(O)CC(O)CC(O)/C=C/C1C (stereo unspecified) | inactive |
| CCN(CC)C(=S)SC [METHYLDIETHYL CARBAMODITHIOATE] | inactive |

Query block: I'd appreciate the recorded outcome for O/N=N/c1ccccn1.OCC1OC2OC3C(CO)OC(OC4C(CO)OC(OC5C(CO)OC(OC6C(CO)OC(OC7C(CO)OC(OC1C(O)C2O)C(O)C7O)C(O)C6O)C(O)C5O)C(O)C4O)C(O)C3O (stereo unspecified) from this test.
Result block: inactive

Query block: I'd appreciate the recorded outcome for COc1ccc(-c2nc3ncccn3c2-c2ccc(SC)cc2)cc1 from this test.
Result block: inactive

---

# Tested on: SR
# test summary: NCI tumour cell line growth inhibition, 48 h
The source made the active and inactive calls. Rule as the data show it: active = GI50 up to about 1.1 µM and inactive = higher.
Classes to choose from: 1.0 = active, 0.0 = inactive

Query block: I'd appreciate the recorded outcome for Cc1cccc(/C=N/N=C(\N)NO)n1 from this test.
Result block: 0.0

Query block: I'd appreciate the recorded outcome for COc1ccc(C(C2=C(C)C(=O)c3ccccc3C2=O)c2ccc(C(C)C)cc(=O)c2O)cc1 (stereo unspecified) from this test.
Result block: 0.0

Query block: I'd appreciate the recorded outcome for CC1=C(C)Cc2c(O)ccc(O)c2C1 from this test.
Result block: 0.0

Query block: I'd appreciate the recorded outcome for CC(C)CCCC(C)[C@H]1CCC2[C@@H]3CCC4Cc5nc6c(nc5C[C@]4(C)C3CC[C@@]21C)CC1CC[C@@H]2C(CC[C@@]3(C)C2CC[C@@H]3C(C)CCCC(C)C)[C@@]1(C)C6 (stereo partly specified) from this test.
Result block: 0.0

---

# Test system: SF-295
# test summary: NCI tumour cell line growth inhibition, 48 h
Calls of active or inactive are those of the source. Cut-off read from the data, not from the text of the source: active = GI50 up to about 1.1 µM and inactive = higher.
A collection of molecules and their measured GI50

// solved cases for GI50 follow
| molecule | GI50 |
| --- | --- |
| Nc1nc2c(ncn2Cc2ccc(CO)cc2)c(=O)[nH]1 | > 100 µM (inactive) |
| O=C1Nc2ccc(Br)cc2/C1=C/C(=O)c1ccccc1 | 17.8 µM (inactive) |
| COC(=O)CCC(=O)Nc1cccc(C(F)(F)F)c1 | > 100 µM (inactive) |
| C#CC(C)(C)Oc1cc(OC)c2c(=O)c3ccccc3n(C)c2c1 | 19.5 µM (inactive) |
| CC1COC(c2cn[nH]c2C(N)=O)C1O (stereo unspecified) | > 100 µM (inactive) |

As a next step, examine the molecule that follows.
Query block: Item CC(C)n1c(=O)c2nn3c(=O)n(C(C)C)c(=O)c3nn2c1=O with SF-295 - GI50?
Result block: > 100 µM (inactive)

---

# Test system: Hs-578T
# test summary: NCI tumour cell line growth inhibition, 48 h
The source made the active and inactive calls. Cut-off read from the data, not from the text of the source: active = GI50 up to about 1.1 µM and inactive = higher.
Classes to choose from: active, inactive

Reference set, count: 3
| compound | discrete label |
| --- | --- |
| O=C(Nc1sccc1S(=O)(=O)c1ccccc1)c1cccnc1 | inactive |
| COc1ccc(C2C(C(=O)c3ccccc3)=C(O)C(O)(CC(=O)c3ccccc3)N2c2ccc(OC)cc2)cc1 (configuration not stated) | inactive |
| COC(=O)[C@@H]1CC(C(CN)c2cn(C(=O)OC(C)(C)C)c3ccccc23)C(=O)N1C(=O)OC(C)(C)C (some centres not stated) | inactive |

Query block: I'd appreciate the recorded outcome for COc1ccc(-n2c(N)c(C#N)[nH]c2=O)cc1 from this test.
Result block: inactive

Query block: I'd appreciate the recorded outcome for O=C1C=CC(=O)[C@H]2C3C=CC(C4C3C3(Cl)C(Cl)=C(Cl)[C@]4(Cl)C3(Cl)Cl)[C@@H]12 (some centres not stated) from this test.
Result block: inactive

Query block: I'd appreciate the recorded outcome for C[C@@]12C[C@@H](c3ccccc3O1)N1CCCCSC1=N2 from this test.
Result block: inactive

Query block: I'd appreciate the recorded outcome for Cc1cc(C2(c3cc(C)c(O)c4ncccc34)OC(=O)c3ccccc32)c2cccnc2c1O from this test.
Result block: active

Query block: I'd appreciate the recorded outcome for O=c1[nH]cc(/N=C/c2cc(Cl)cc(Cl)c2O)c(=O)[nH]1 from this test.
Result block: inactive

Query block: I'd appreciate the recorded outcome for Nc1nc2c(ncn2Cc2ccc(CO)cc2)c(=O)[nH]1 from this test.
Result block: inactive

Query block: I'd appreciate the recorded outcome for O=C1Nc2ccccc2/C1=N/NC(=S)Nc1cccc(Cl)c1 from this test.
Result block: inactive

Query block: I'd appreciate the recorded outcome for NNC(=O)C(O)C(O)C(=O)NN (configuration not stated) from this test.
Result block: inactive

Query block: I'd appreciate the recorded outcome for CCOC(=O)c1c(CN2CCOCC2)n(Cc2ccccc2)c2c1cc(O)c1nc(C)c(C)nc12 from this test.
Result block: inactive

Query block: I'd appreciate the recorded outcome for Cc1[nH]n(-c2nc3c(c(=O)[nH]2)CCCC3)c(=O)c1CCO from this test.
Result block: inactive

Query block: I'd appreciate the recorded outcome for N#Cc1nc(-c2cnccn2)oc1N from this test.
Result block: inactive

Query block: I'd appreciate the recorded outcome for CCn1c(=O)c2nc(SC)sc2n(-c2ccccc2)c1=S from this test.
Result block: inactive

Query block: I'd appreciate the recorded outcome for Cc1cn(CC2=NCCN2)c(=O)[nH]c1=O from this test.
Result block: inactive

Query block: I'd appreciate the recorded outcome for O=C(O)/C=C\C(=O)Nc1ccc2c(c1)-c1ccccc1C2 from this test.
Result block: inactive

Query block: I'd appreciate the recorded outcome for N#Cc1c(N)nc(SCc2ccccc2)c(C#N)c1-c1ccc(O)cc1 from this test.
Result block: inactive
